Source listed as paper PMC3806476.

- assay.summary: Cytotoxicity against L6 cells (resazurin, 72 h)
- Format: cell-based, rat
- condition.set: rat skeletal myoblasts, mean of at least two replicates; read-out: IC50 Cytotoxicity L6 cells
- Experimental: Assays were performed in 96-well microtiter plates, each well containing 100 μL of RPMI 1640 medium supplemented with 1% L-glutamine (200 mM) and 10% fetal bovine serum, and 4 × 10^4 L-6 cells. Serial drug dilutions of eleven 3-fold dilution steps covering a range from 100 to 0.002 μg/mL were prepared. […] The plates were read with a Spectramax Gemini XS microplate fluorometer using an excitation wavelength of 536 nm and an emission wavelength of 588 nm. […]

| compound | IC50 at 72 h, µg/mL |
| --- | --- |
| Nc1nc(N)nc(Nc2ccc([As]3SCC(CO)S3)cc2)n1 (centres unmarked) [Melarsoprol, reference compound] | 7.3 |
| COc1cc([C@@H]2c3cc4c(cc3[C@H](O)[C@H]3COC(=O)[C@H]23)OCO4)cc(OC)c1OC [Podophyllotoxin, reference compound] | 0.004 |
